target: Voltage-dependent N-type calcium channel subunit alpha-1B (Homo sapiens, UniProt Q00975); test: Inhibition of Cav2.2 in human SH-SY5Y cells assessed as inhibition of calcium influx measured for 300 secs in presence of Cav1 blocker, nifedipine by FLIPR assay
Sequence (Q00975 whole entry): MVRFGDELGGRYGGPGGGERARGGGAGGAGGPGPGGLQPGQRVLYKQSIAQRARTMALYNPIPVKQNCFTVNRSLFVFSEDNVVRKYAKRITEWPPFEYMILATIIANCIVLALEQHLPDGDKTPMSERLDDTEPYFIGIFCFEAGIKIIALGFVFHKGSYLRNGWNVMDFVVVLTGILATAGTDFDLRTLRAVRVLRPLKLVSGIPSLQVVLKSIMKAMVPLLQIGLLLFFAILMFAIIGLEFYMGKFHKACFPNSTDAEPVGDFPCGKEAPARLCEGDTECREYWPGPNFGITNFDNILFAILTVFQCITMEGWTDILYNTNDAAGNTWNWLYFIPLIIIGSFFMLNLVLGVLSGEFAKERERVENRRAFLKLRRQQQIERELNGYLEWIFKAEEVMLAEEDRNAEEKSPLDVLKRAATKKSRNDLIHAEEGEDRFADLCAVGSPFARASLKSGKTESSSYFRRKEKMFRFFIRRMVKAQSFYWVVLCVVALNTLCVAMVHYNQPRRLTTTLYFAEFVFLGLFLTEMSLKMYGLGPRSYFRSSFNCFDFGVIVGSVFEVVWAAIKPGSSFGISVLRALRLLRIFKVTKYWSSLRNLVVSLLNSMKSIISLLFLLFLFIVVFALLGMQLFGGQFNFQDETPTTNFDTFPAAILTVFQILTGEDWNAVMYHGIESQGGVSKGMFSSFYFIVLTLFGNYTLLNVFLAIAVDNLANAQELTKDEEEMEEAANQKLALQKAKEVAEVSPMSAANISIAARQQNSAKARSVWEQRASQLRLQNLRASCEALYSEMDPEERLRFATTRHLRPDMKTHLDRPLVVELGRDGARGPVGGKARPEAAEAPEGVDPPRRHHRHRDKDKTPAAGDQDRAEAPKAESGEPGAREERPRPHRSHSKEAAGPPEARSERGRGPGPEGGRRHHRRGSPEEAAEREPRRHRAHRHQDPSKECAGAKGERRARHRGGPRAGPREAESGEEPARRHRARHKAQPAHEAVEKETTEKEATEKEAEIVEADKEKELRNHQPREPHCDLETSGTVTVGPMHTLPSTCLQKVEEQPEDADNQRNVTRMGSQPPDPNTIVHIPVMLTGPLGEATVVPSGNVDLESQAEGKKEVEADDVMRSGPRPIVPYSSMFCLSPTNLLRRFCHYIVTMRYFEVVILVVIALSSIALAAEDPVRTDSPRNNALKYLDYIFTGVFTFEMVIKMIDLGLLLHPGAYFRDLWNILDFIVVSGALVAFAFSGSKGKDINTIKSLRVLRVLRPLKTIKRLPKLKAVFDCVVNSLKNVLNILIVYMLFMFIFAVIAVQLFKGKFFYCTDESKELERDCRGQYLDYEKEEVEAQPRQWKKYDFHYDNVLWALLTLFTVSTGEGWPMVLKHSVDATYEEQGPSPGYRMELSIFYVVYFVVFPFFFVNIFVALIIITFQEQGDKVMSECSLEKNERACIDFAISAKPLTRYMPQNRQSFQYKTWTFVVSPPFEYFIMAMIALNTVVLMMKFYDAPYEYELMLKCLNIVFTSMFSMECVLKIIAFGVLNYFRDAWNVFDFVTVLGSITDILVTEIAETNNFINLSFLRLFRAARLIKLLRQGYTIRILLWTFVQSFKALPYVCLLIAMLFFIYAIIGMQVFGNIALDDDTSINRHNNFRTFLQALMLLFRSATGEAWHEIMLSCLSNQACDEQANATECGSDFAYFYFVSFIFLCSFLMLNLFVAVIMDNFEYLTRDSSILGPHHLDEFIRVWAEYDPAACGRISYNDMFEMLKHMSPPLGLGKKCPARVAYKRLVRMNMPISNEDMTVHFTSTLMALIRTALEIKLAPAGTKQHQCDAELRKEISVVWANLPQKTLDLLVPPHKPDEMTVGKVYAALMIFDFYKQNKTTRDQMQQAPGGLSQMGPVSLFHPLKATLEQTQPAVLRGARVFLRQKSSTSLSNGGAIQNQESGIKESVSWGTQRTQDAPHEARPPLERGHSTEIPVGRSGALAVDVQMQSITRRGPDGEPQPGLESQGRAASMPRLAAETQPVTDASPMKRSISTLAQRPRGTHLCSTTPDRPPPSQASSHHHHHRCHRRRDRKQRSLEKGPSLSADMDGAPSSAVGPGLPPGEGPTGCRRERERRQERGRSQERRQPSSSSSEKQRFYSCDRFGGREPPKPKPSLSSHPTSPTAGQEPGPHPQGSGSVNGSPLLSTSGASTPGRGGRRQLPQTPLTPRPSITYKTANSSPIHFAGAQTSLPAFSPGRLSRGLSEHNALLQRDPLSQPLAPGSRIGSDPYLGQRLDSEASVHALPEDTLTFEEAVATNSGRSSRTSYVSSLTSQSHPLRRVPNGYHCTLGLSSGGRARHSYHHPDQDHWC
MEASURED METRIC: IC50 (µM)

[P] c1ccc(Oc2cccc(NCc3ccc(OCCCn4ccnc4)cc3)c2)cc1
[Q] Fc1ccc(Oc2cccc(NCc3ccc(OCCCN4CCCCC4)cc3)c2)cc1
I need your help: which of the pair P , Q has higher IC50? Refer to your chosen item by its label in the answer.
P

[A] CC(C)[C@H]1c2ccc(F)cc2CC[C@@]1(CCN(C)CCCc1nc2ccccc2[nH]1)OC(=O)C1CC1
[B] CN(C)CCCOc1ccc(S(=O)(=O)Nc2cccc(Oc3ccccc3)c2)cc1
For A and B , which recorded IC50 is lower? Refer to your chosen item by its label in the answer.
B

Cited source: ChEMBL document CHEMBL5344473
